# target.or.test.system: PLA2G7 (Mus musculus, UniProt Q60963)
# Construct: Proteomes (mouse brain membrane fraction or cell lysates); from tissue; host or cells: mouse brain membrane fraction (or cell lysates, not specified)
# Sequence (Q60963 22-440): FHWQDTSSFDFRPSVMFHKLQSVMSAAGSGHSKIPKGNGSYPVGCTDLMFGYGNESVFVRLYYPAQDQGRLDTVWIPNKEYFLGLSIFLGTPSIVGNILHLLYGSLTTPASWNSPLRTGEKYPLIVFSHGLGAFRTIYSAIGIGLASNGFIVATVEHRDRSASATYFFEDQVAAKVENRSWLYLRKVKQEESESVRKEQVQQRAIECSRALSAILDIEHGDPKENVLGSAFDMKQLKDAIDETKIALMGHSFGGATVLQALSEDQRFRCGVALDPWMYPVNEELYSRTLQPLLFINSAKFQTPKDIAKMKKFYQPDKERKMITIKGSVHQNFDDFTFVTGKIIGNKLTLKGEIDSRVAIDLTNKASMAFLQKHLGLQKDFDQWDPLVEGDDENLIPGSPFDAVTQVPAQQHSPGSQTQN
# method.notes: In vitro competitive activity-based protein profiling (gel-based, FP-Rh or HT-01 probe)
# Format: biochemical
# run.conditions: 1 μM inhibitor; read-out: % Inhibition at 1 μM, D = PLA2G7

structure.as.smiles: O=C(c1cnn(C(=O)N2CCN(Cc3ccc4c(c3)OCO4)CC2)c1)N1CCCC1
target.or.test.system: PLA2G7 (Mus musculus, UniProt Q60963)
inhibition at 1 µM: < 25%

structure.as.smiles: Cc1ccccc1-c1cnn(C(=O)N2CCN(C(c3ccc(Cl)cc3)c3ccc(Cl)cc3)CC2)c1
target.or.test.system: PLA2G7 (Mus musculus, UniProt Q60963)
inhibition at 1 µM: 25 to 75%

structure.as.smiles: CN(Cc1cccc(-c2ccncc2)c1)C(=O)n1cc(C(F)(F)F)cn1
target.or.test.system: PLA2G7 (Mus musculus, UniProt Q60963)
inhibition at 1 µM: 25 to 75%

structure.as.smiles: O=C(c1cnn(C(=O)N2CCN(Cc3cncnc3)CC2)c1)N1CCC1
target.or.test.system: PLA2G7 (Mus musculus, UniProt Q60963)
inhibition at 1 µM: < 25%

structure.as.smiles: N#Cc1cnn(C(=O)N2CCN(Cc3ccc(-c4ccccc4)cc3)CC2)c1
target.or.test.system: PLA2G7 (Mus musculus, UniProt Q60963)
inhibition at 1 µM: > 75%

structure.as.smiles: O=C(N1CCN(Cc2ccc(Cl)cc2)CC1)n1cc(Cl)cn1
target.or.test.system: PLA2G7 (Mus musculus, UniProt Q60963)
inhibition at 1 µM: < 25%

structure.as.smiles: CS(=O)(=O)N1CCCN(C(=O)n2cc(C(F)(F)F)cn2)CC1
target.or.test.system: PLA2G7 (Mus musculus, UniProt Q60963)
inhibition at 1 µM: > 75%

structure.as.smiles: CS(=O)(=O)N1CCN(C(=O)n2cc(C(F)(F)F)cn2)CC1
target.or.test.system: PLA2G7 (Mus musculus, UniProt Q60963)
inhibition at 1 µM: > 75%

structure.as.smiles: O=C(N1CCN(Cc2ccccn2)CC1)n1cc(-c2ccccc2)cn1
target.or.test.system: PLA2G7 (Mus musculus, UniProt Q60963)
inhibition at 1 µM: > 75%

structure.as.smiles: CC(=O)N1CCN(C(=O)n2cc(C(F)(F)F)cn2)CC1
target.or.test.system: PLA2G7 (Mus musculus, UniProt Q60963)
inhibition at 1 µM: > 75%

structure.as.smiles: O=C(c1cnn(C(=O)N2CCN(Cc3ccncn3)CC2)c1)N1CCCCC1
target.or.test.system: PLA2G7 (Mus musculus, UniProt Q60963)
inhibition at 1 µM: > 75%

structure.as.smiles: CC(=O)N1CCN(C(=O)n2cc(C#N)cn2)CC1
target.or.test.system: PLA2G7 (Mus musculus, UniProt Q60963)
inhibition at 1 µM: > 75%

structure.as.smiles: O=C(N1CCN(c2ccc(N3CCCC3)cc2)CC1)n1cc(C(F)(F)F)cn1
target.or.test.system: PLA2G7 (Mus musculus, UniProt Q60963)
inhibition at 1 µM: > 75%

structure.as.smiles: O=C(NCc1ccc2ccccc2c1)n1cccn1
target.or.test.system: PLA2G7 (Mus musculus, UniProt Q60963)
inhibition at 1 µM: < 25%

structure.as.smiles: O=C(c1ccccc1)N1CCN(C(=O)n2cc(C(F)(F)F)cn2)CC1
target.or.test.system: PLA2G7 (Mus musculus, UniProt Q60963)
inhibition at 1 µM: > 75%

structure.as.smiles: O=C(c1cnn(C(=O)N2CCN(Cc3ccncn3)CC2)c1)N1CCC1
target.or.test.system: PLA2G7 (Mus musculus, UniProt Q60963)
inhibition at 1 µM: < 25%

structure.as.smiles: Cc1cc(-c2ccccc2)ccc1CN1CCN(C(=O)n2cc(C(=O)N3CCC3)cn2)CC1
target.or.test.system: PLA2G7 (Mus musculus, UniProt Q60963)
inhibition at 1 µM: < 25%

structure.as.smiles: O=C(c1cnn(C(=O)N2CCN(Cc3cccnc3)CC2)c1)N1CCCCC1
target.or.test.system: PLA2G7 (Mus musculus, UniProt Q60963)
inhibition at 1 µM: > 75%

structure.as.smiles: O=C(N1CCCCC1)n1cc(-c2ccccc2)cn1
target.or.test.system: PLA2G7 (Mus musculus, UniProt Q60963)
inhibition at 1 µM: > 75%

----------
# target.or.test.system: ABHD6 (Mus musculus)
# Construct: Proteomes (mouse brain membrane fraction or cell lysates); from tissue; host or cells: mouse brain membrane fraction (or cell lysates, not specified)
# Sequence (Q8R2Y0 1-336): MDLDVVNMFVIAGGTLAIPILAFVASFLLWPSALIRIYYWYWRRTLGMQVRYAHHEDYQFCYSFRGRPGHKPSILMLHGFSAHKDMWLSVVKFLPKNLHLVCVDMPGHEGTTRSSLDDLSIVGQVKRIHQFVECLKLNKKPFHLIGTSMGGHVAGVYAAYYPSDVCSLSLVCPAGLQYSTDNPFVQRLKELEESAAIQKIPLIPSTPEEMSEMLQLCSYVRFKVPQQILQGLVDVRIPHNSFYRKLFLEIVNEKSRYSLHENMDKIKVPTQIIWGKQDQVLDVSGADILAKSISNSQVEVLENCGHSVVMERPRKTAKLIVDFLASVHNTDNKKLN
# method.notes: In vitro competitive activity-based protein profiling (gel-based, FP-Rh or HT-01 probe)
# Format: biochemical
# run.conditions: 1 μM inhibitor; read-out: % Inhibition at 1 μM, C = ABHD6

structure.as.smiles: O=C(c1cnn(C(=O)N2CCN(Cc3ccncn3)CC2)c1)N1CCC1
target.or.test.system: ABHD6 (Mus musculus)
inhibition at 1 µM: < 25%
--
structure.as.smiles: O=C(c1cnn(C(=O)N2CCN(Cc3ccncn3)CC2)c1)N1CCOCC1
target.or.test.system: ABHD6 (Mus musculus)
inhibition at 1 µM: < 25%
--
structure.as.smiles: CC(C)c1cnn(C(=O)N2CCN(C(c3ccc(Cl)cc3)c3ccc(Cl)cc3)CC2)c1
target.or.test.system: ABHD6 (Mus musculus)
inhibition at 1 µM: 25 to 75%
--
structure.as.smiles: COc1cc(-c2ccccc2)ccc1CN1CCN(C(=O)n2cc(C(F)(F)F)cn2)CC1
target.or.test.system: ABHD6 (Mus musculus)
inhibition at 1 µM: > 75%
--
structure.as.smiles: Cc1cc(N2CCN(C(=O)n3cc(-c4ccccc4)cn3)CC2)c2ccccc2n1
target.or.test.system: ABHD6 (Mus musculus)
inhibition at 1 µM: > 75%
--
structure.as.smiles: O=C(c1cnn(C(=O)N2CCN(Cc3nccs3)CC2)c1)N1CCCC1
target.or.test.system: ABHD6 (Mus musculus)
inhibition at 1 µM: < 25%
--
structure.as.smiles: N#Cc1cnn(C(=O)N2CCCCC2)c1
target.or.test.system: ABHD6 (Mus musculus)
inhibition at 1 µM: > 75%
--
structure.as.smiles: N#Cc1cnn(C(=O)N2CCN(Cc3ccc(-c4ccccc4)cc3OCc3ccccc3)CC2)c1
target.or.test.system: ABHD6 (Mus musculus)
inhibition at 1 µM: > 75%
--
structure.as.smiles: O=C(N1CCN(Cc2ccc(N3CCCC3)cc2)CC1)n1cc(Cl)cn1
target.or.test.system: ABHD6 (Mus musculus)
inhibition at 1 µM: > 75%
--
structure.as.smiles: O=C(N1CCN(CC2CC2)CC1)n1cc(Cl)cn1
target.or.test.system: ABHD6 (Mus musculus)
inhibition at 1 µM: > 75%
--
structure.as.smiles: O=C(NCc1ccc2ccccc2c1)n1cccn1
target.or.test.system: ABHD6 (Mus musculus)
inhibition at 1 µM: < 25%
--
structure.as.smiles: CN(CCN(C)C(=O)n1cccn1)C(=O)OC(C)(C)C
target.or.test.system: ABHD6 (Mus musculus)
inhibition at 1 µM: < 25%
--
structure.as.smiles: O=C(c1cnn(C(=O)N2CCN(Cc3ccc4c(c3)OCO4)CC2)c1)N1CCOCC1
target.or.test.system: ABHD6 (Mus musculus)
inhibition at 1 µM: > 75%
--
structure.as.smiles: O=C(N1CCN(Cc2ccc(N3CCOCC3)cc2)CC1)n1cc(Cl)cn1
target.or.test.system: ABHD6 (Mus musculus)
inhibition at 1 µM: > 75%
--
structure.as.smiles: CNC(=O)c1cnn(C(=O)N2CCN(Cc3ccc(Cl)cc3)CC2)c1
target.or.test.system: ABHD6 (Mus musculus)
inhibition at 1 µM: > 75%
--
structure.as.smiles: N#Cc1cnn(C(=O)NCCCCCc2ccccc2)c1
target.or.test.system: ABHD6 (Mus musculus)
inhibition at 1 µM: < 25%
--
structure.as.smiles: Cc1cnn(C(=O)N2CCN(C(c3ccc(Cl)cc3)c3ccc(Cl)cc3)CC2)c1
target.or.test.system: ABHD6 (Mus musculus)
inhibition at 1 µM: < 25%
--
structure.as.smiles: COc1ccccc1-c1ccc(-c2cnn(C(=O)N3CCCC3)c2)cc1
target.or.test.system: ABHD6 (Mus musculus)
inhibition at 1 µM: > 75%
--
structure.as.smiles: N#Cc1cnn(C(=O)N2CCN(Cc3ccccc3)CC2)c1
target.or.test.system: ABHD6 (Mus musculus)
inhibition at 1 µM: > 75%
